// values below are reported IC50, 1 nM PACAP38-induced human VPAC2-R mediated cAMP increase
# Assay target: T1, human PACAP38 (human, not fully specified; C-terminal lysine is amidated; N-terminal or C-terminal biotin in the HTRF and PC-12 cell binding assays)
# T1 peptide: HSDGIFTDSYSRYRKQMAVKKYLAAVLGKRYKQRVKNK
# Experiment summary: cell-based or functional assay
Use pM as the unit, but write only the number.

Binder	Reported value
anti-PACAP antibody Ab15 (antibody, human IgG1, kappa, N297A, V domains shown, full-length rabbit/human chimeric antibody) VH: QSVEASGGHLVTPGTPLTLTCTVSGFSLSSAAMNWVRQAPGKGLEWIGSVDERQNKYYASWAKGRFTISRTSSTTVNLKMTSPTTEDTATYFCARGGGEFFIWGQGTLVTVSS VL: AQVLTQTPSSVSAAVGGTVTINCQSSQSVYSNNRLSWYQQKPGQPPNLLIYEASSLASGVPSRFSGSGSGTQFTLTISDLECDDAATYYCAGAYNTGIYGFGGGTEVVVKR	22800
anti-PACAP antibody Ab16 (antibody, human IgG1, kappa, N297A, V domains shown, full-length rabbit/human chimeric antibody) VH: QSVEESGGRLVTPGTPLTLTCTVSGFSLSSAAMSWVRQAPGKGLEWIGIIDDSGNTYYASWAKARFTISKTSSTTVDLKMTSPTTEDTATYFCARGGGEFFIWGPGTLVTVSS VL: DPVLTQTPSSVSAAVGGTVTINCQSSQSVYNNKWLSWYQQKPGQSPKFLIYQASNLASGVPSRFKGSGSGTQFTLTISDLECDDGATYYCAGGYRGNVCGFGGGTEVVVKR	1150
anti-PACAP antibody Ab6 (antibody, human IgG1, kappa, N297A, V domains shown, full-length rabbit/human chimeric antibody) VH: LEQSGGGAEGGLVKPGGSLELCCKASGFSLSSTYWMCWVRQAPGKGLEWIGCIYTGSGSTDYASWVNGQFTLSRDIDQSTGCLQLNSLTVADTAMYYCTKNFDLWGPGTLVTVSS VL: AQVLTQTPSSVSAAVGGTVTINCQSSPSVYSNNYLSWFQQKPGQPPKGLIADASTLASGVPSRFKGSGSGTQFTLTISGVQCDDAAAYYCLGYYDCGSTDCHAFGGGTEVVVKR	217
anti-PACAP antibody Ab1.H (antibody, human IgG1, kappa, N297A, V domains shown, humanized form of Ab1, full length) VH: EVQLVESGGGLVQPGGSLRLSCAASGFTVSSAVMNWVRQAPGKGLEWIGSIVASGTTYYASSANGRFTISRDNSKNTLYLQMNSLRAEDTAVYYCARGGGEFFIWGQGTLVTVSS VL: DIQMTQSPSTLSASVGDRVTITCQSSESVYSNYLSWYQQKPGKAPKFLIYQASNLASGVPSRFSGSGSGTEFTLTISSLQPDDFATYYCAGGYSENIVGFGGGTKVEIKR	983
anti-PACAP antibody Ab19 (antibody, human IgG1, kappa, N297A, V domains shown, full-length rabbit/human chimeric antibody) VH: QSVEASGGRLVTPGTPLTLTCTVSGFSLSSATMNWVRQAPGKGLEWIGLIGGNDERYYASWAKGRFTISKTSSTTVDLKMTSPTTEDTATYFCARGGGEFFIWGPGTLVTVSS VL: AQVLTQTPSSVSAAVGGTVTINCQSSESVYTNDRLSWYQQKPGQPPKLLIYEASKLASGVPPRFSGSGSGTQFTLTISDLECDDAATYYCAGAYSTSIHGFGGGTEVVVKR	954

Looking up anti-PACAP antibody Ab8 (antibody, human IgG1, kappa, N297A, V domains shown, full-length rabbit/human chimeric antibody) VH: LEQSGGGAEGGLVKPGGSLELCCKASGFSLTTSHWMCWVRQAPGKGLNWIGCISAGSGDADYATWVDAQFTLSRDIDQNTGCLQLNSLTPADTAMYYCTINFELWGQGTLVTVSS VL: AQVLTQTPSSVSAAVGGTVTINCQSSPSVYSSYLSWFQQKPGQPPKFLIYEASKLASGVPSRFSGSGSGTQFTLTISGVQCSDAATYYCLGAYDCGRTDCHAFGGGTEVVVKR , I see its IC50, 1 nM PACAP38-induced human VPAC2-R mediated cAMP increase listed as 147

Looking up anti-PACAP antibody Ab12 (antibody, human IgG1, kappa, N297A, V domains shown, full-length rabbit/human chimeric antibody) VH: QSVEESGGRLVTPGTPLTLTCTASGFSLSSYAMGWVRQAPGKGLEWIGDISTYGTTDYASWVYGRFTISRTSTTVTLKMTSLTTEDTATYFCARDYWLSLWGQGTLVTVSS VL: AAVLTQTPSPVSAAVGGTVTIKCQSSQSVYDNNALAWYQQKPGQPPKLLIYAASTLASGVPSRFSGSGSGTEFTLTISGVQCDDAATYYCLGGYYDPADNAFGGGTEVVVKR , I see its IC50, 1 nM PACAP38-induced human VPAC2-R mediated cAMP increase listed as 179

Looking up anti-PACAP antibody Ab22 (antibody, human IgG1, kappa, N297A, V domains shown, full-length rabbit/human chimeric antibody; PACAP38 specific) VH: QEQLVESGGGLVQPEGSLTLTCTASGFDFSSNAMCWVRQAPGKGLEWIGSIYNADGKNYYAIWAKGRFTISRTSSTTVTLQMTSLTAADTATYFCARDFDLWGQGTLVTVSS VL: AAVLTQTPSPVSAAVGGTVTINCQSSQSVYDNDWLAWFQQKPGQPPKLLIYLTSTLASGVPSRFSGSGSGTQFTLTISGVQCDDAATYYCLGGYDEDGDTHVFGGGTEVVVKR , I see its IC50, 1 nM PACAP38-induced human VPAC2-R mediated cAMP increase listed as 515

Looking up anti-PACAP antibody Ab5 (antibody, human IgG1, kappa, N297A, V domains shown, full-length rabbit/human chimeric antibody) VH: QSVEESGGRLVTPGTPLTLTCTVSGFSLSSYAMIWVRQAPGKGLEWIGIIYDNGDTYYASWAKGRFTISKTSTTVYLKIASPTTEDTATYFCAREPGSTTQNDLWGQGTLVTVSS VL: DVVMTQTPASVSEPVGGTVTIKCQASENIYNSLLWYQQKPGQPPKLLIYRASTLASGVSSRFKGSGSGTEFTLTISDLECADAATYYCQNYYNIWTNGAAFGGGTEVVVKR , I see its IC50, 1 nM PACAP38-induced human VPAC2-R mediated cAMP increase listed as 239

Looking up anti-PACAP antibody Ab9.H (antibody, human IgG1, kappa, N297A, V domains shown, humanized form of Ab9, full length) VH: EVQLVESGGGLVQPGGSLRLSCAASGFTVSRDYWICWVRQAPGKGLEWIGCISAGGGSTDYANWVNGRFTISRDISKNTGYLQMNSLRAEDTAVYYCAGNLEIWGQGTLVTVSS VL: DIQMTQSPSTLSASVGDRVTITCQSSPSIYSGAFLSWYQQKPGKAPKFLIYEASKLASGVPSRFSGSGSGTEFTLTISSLQPDDFATYYCLGFYDCSSVDCHAFGGGTKVEIKR , I see its IC50, 1 nM PACAP38-induced human VPAC2-R mediated cAMP increase listed as 2650
